Source listed as PubChem BioAssay AID488969.

molecular target: Metabotropic glutamate receptor 8 (Rattus norvegicus) (UniProt P70579); assay: mGluR8 Gi/Go-coupled signaling modulation – cell-based, rat, thallium flux, HTS, primary screen (AID 488969); conditions: HEK293 rat mGluR8, GIRK (G protein-gated inwardly rectifying potassium channel) thallium flux, FluoZin2; at 10 µM; stronger effect = higher value; submaximal glutamate (EC20) added with thallium
Sequence (P70579 whole entry, looked up): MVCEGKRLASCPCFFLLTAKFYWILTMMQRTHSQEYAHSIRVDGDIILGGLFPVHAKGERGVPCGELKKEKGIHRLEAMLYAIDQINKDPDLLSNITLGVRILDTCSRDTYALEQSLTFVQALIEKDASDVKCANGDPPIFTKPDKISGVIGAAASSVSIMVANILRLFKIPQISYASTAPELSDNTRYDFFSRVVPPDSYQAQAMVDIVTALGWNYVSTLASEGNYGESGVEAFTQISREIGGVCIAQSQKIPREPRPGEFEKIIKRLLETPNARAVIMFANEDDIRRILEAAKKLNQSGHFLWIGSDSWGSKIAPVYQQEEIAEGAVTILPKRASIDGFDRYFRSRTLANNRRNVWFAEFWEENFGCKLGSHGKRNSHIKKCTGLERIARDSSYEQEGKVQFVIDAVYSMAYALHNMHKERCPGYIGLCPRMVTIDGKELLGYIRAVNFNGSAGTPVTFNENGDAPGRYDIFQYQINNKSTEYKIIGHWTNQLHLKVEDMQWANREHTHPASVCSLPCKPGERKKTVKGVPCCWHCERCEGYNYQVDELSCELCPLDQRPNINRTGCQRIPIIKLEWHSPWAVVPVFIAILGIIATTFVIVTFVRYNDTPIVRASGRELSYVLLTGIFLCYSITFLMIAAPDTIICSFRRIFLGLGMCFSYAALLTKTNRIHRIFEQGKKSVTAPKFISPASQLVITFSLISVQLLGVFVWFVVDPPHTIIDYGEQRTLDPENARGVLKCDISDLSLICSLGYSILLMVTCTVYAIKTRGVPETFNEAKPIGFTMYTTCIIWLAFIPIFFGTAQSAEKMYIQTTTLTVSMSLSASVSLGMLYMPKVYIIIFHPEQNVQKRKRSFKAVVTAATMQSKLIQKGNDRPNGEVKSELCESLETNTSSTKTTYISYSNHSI
In all, about 110,000 compounds were measured (“z-score”: median about -0.1, highest 2% from about 2 on). Shown is part of a subset that was picked to be rich in the highest values.
VALUE_KIND: z-score
Lab note: write the figure by itself, no unit.

Example compounds with recorded z-score:
Task item: What value of z-score has been recorded for this entry: O=c1cc(-c2cccs2)oc2ccc(Cl)cc12
Reply: -0.565

Task item: Further, for O=c1c(O)c(-c2cccs2)oc2ccccc12 ?
Reply: 17.2

Task item: Further, for O=c1c(O)c(-c2ccc3c(c2)OCO3)oc2ccccc12 ?
Reply: -0.981

Task item: Further, for COc1ccc(OC)c(-c2oc3ccccc3c(=O)c2O)c1 ?
Reply: 0.149

Task item: Further, for CN(C)Cc1ccccc1C1(O)c2ccccc2CSc2ccccc21 (stereo unspecified) ?
Reply: -0.164

Now look at this one.
Task item: What value of z-score has been recorded for this entry: CCOC(=O)C1CCN(C(=O)c2cc(OCC)c(OCC)c(OCC)c2)CC1
Reply: 0.856
